- ASSAY EXPLANATION: Comparative study of pharmacokinetic properties in Beagle dogs (oral)
- Format: in vivo
- PROTOCOL CONDITIONS: Beagle, dog, in vivo, po, 46.8 mg/kg
READOUT: AUC(0-t)

For "CN(C)CCOCCOC(=O)O[C@H]1CC[C@@]2(C)C(=CC[C@@H]3[C@@H]2CC[C@]2(C)C(c4cccnc4)=CC[C@@H]32)C1" , write its AUC(0-t).
908 ng·h/mL

###

- ASSAY EXPLANATION: Comparative study of pharmacokinetic properties in Beagle dogs (oral)
- Assay type: in vivo
- PROTOCOL CONDITIONS: Beagle, dog, in vivo, po, 46.8 mg/kg
READOUT: AUC(0-inf) (ng·h/mL)
Value expressed in ng·h/mL; do not type the unit.

Return the recorded AUC(0-inf) value; entry: "CN(C)CCOCCOC(=O)O[C@H]1CC[C@@]2(C)C(=CC[C@@H]3[C@@H]2CC[C@]2(C)C(c4cccnc4)=CC[C@@H]32)C1"
1060
